From: ChEMBL document CHEMBL2390905

List of pKi values.
Biological target: Amine oxidase [flavin-containing] A (Homo sapiens)
Sequence (P21397 whole entry): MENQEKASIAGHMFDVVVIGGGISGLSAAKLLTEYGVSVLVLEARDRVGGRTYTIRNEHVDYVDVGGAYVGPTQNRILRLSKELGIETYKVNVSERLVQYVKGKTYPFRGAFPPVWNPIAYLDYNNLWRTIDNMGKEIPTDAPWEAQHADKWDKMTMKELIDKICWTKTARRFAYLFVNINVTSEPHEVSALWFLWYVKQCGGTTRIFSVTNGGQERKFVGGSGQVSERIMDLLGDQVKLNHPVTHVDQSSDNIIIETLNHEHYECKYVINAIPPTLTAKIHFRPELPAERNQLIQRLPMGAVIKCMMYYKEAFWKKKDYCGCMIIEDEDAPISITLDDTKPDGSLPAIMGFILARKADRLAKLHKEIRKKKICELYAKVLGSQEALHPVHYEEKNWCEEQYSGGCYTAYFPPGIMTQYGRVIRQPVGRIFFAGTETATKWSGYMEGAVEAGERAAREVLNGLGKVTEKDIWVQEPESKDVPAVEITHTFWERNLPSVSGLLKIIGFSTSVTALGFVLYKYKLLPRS
Assay: Inhibition of MAO-A (unknown origin) by luciferase […] assay
pKi: −log10 of the molar value.

SAMPLE SMILES	QUAL	pKi
CC(=O)NC[C@H]1CN(c2ccc(N3CCOCC3)c(F)c2)C(=O)O1	=	5.10
CC(=O)NC[C@H]1CN(c2ccc(N3C=NN(C)CC3)c(F)c2)C(=O)O1	=	5.40
CN1CCN(c2ccc(N3C[C@H](COC(N)=S)OC3=O)cc2F)C=N1	=	5.40
Cn1nnc(-c2ccc(-c3ccc(N4C[C@H](CO)OC4=O)cc3F)cn2)n1	>	5.70
